Tested on: LDL particle (low-density lipoprotein, apoB-containing), commercial
Assay: SPR
Conditions: 5' disulfide; aptamer on gold chip; unit inferred
Reported Kd values are given for each entry in this list.
Respond with the bare value in nM.

Example entries and their recorded answers appear below.
{"columns": ["BIOSEQUENCE", "MEASURE", "MEASURED NUMBER"],
 "data": [
  ["AACTACATGGTATGTGGTGAACTCACGCGCATAACCCTTTTTTCACCTGCCCTTTTAACTAATGACGTACAATGTACCC [LDL-A274]", "Kd", 0.0773],
  ["AACTACATGGTATGTGGTGAACTAACCTTAATTTACCCTTGTTTTATCATTTCCATCATAGCTGACGTACAATGTACCC [LDL-A12]", "Kd", 0.0497],
  ["AACTACATGGTATGTGGTGAACTAAACCATTCTTGTCTCGCATTTTTCTCTTTTATATTATTTGACGTACAATGTACCC [LDL-A38]", "Kd", 0.0455]
]}

Query: // query Kd value for entry AACTACATGGTATGTGGTGAACTGTCAGCTTCTTCTATATAATTCACCTTGCCTCTCGTTCCTGACGTACAATGTACCC [LDL-A2]
Response: 0.0421

====

Test system: H-LDL particle (small dense LDL)
Assay: SPR
Details: 5' disulfide; printed kD differs from kd/ka of same row; unit inferred
MEASURE: pKd
FYI, pKd means -log10 of a concentration in mol per litre.

{"columns": ["BIOSEQUENCE", "pKd"],
 "data": [
  ["AACTACATGGTATGTGGTGAACTCACGCGCATAACCCTTTTTTCACCTGCCCTTTTAACTAATGACGTACAATGTACCC [LDL-A274]", 9.10]
]}

Next sequence, please.
Query: // query pKd value for entry AACTACATGGTATGTGGTGAACTACCTCGATTTTATATTATTTCGCTTACCAACAACTGCAGAGACGTACAATGTACCC [LDL-A1]
Response: 8.91

====

Test system: H-LDL particle (small dense LDL)
Test: SPR
Conditions: 5' disulfide; unit inferred
MEASURE: pKd
FYI, pKd means -log10 of a concentration in mol per litre.

{"columns": ["BIOSEQUENCE", "MEASURED NUMBER"],
 "data": [
  ["AACTACATGGTATGTGGTGAACTAACCTTAATTTACCCTTGTTTTATCATTTCCATCATAGCTGACGTACAATGTACCC [LDL-A12]", 10.64]
]}

Query: // query pKd value for entry AACTACATGGTATGTGGTGAACTAAACCATTCTTGTCTCGCATTTTTCTCTTTTATATTATTTGACGTACAATGTACCC [LDL-A38]
Response: 9.63

====

Reported Kd values are given for each entry in this list.
Test system: LDL particle (low-density lipoprotein, apoB-containing), commercial
Test: SPR
Conditions: 5' disulfide; 1 nM LDL, selection buffer, repeat on gold chip
Respond with the bare value in nM.

Example entries and their recorded answers appear below.
{"columns": ["BIOSEQUENCE", "MEASURED NUMBER"],
 "data": [
  ["AACTACATGGTATGTGGTGAACTGTCAGCTTCTTCTATATAATTCACCTTGCCTCTCGTTCCTGACGTACAATGTACCC [LDL-A2]", 0.015],
  ["AACTACATGGTATGTGGTGAACTAAACCATTCTTGTCTCGCATTTTTCTCTTTTATATTATTTGACGTACAATGTACCC [LDL-A38]", 0.0207],
  ["AACTACATGGTATGTGGTGAACTACCTCGATTTTATATTATTTCGCTTACCAACAACTGCAGAGACGTACAATGTACCC [LDL-A1]", 0.00168],
  ["AACTACATGGTATGTGGTGAACTCACGCGCATAACCCTTTTTTCACCTGCCCTTTTAACTAATGACGTACAATGTACCC [LDL-A274]", 0.0214]
]}

Next sequence, please.
Query: // query Kd value for entry AACTACATGGTATGTGGTGAACTAACCTTAATTTACCCTTGTTTTATCATTTCCATCATAGCTGACGTACAATGTACCC [LDL-A12]
Response: 0.0108

====

System: LDL particle (low-density lipoprotein, apoB-containing), commercial
Assay: SPR
Conditions: 5' disulfide; 1 nM LDL added to 1% blood serum in selection buffer
Reported Kd values are given for each entry in this list.
Respond with the bare value in nM.

Query: // query Kd value for entry AACTACATGGTATGTGGTGAACTAACCTTAATTTACCCTTGTTTTATCATTTCCATCATAGCTGACGTACAATGTACCC [LDL-A12]
Response: 0.0466

Query: // query Kd value for entry AACTACATGGTATGTGGTGAACTCACGCGCATAACCCTTTTTTCACCTGCCCTTTTAACTAATGACGTACAATGTACCC [LDL-A274]
Response: 0.114

Query: // query Kd value for entry AACTACATGGTATGTGGTGAACTGTCAGCTTCTTCTATATAATTCACCTTGCCTCTCGTTCCTGACGTACAATGTACCC [LDL-A2]
Response: 0.00512

Query: // query Kd value for entry AACTACATGGTATGTGGTGAACTAAACCATTCTTGTCTCGCATTTTTCTCTTTTATATTATTTGACGTACAATGTACCC [LDL-A38]
Response: 0.0178

====

Reported pKd values are given for each entry in this list.
System: L-LDL particle (large fluffy LDL)
Experiment: SPR
Details: 5' disulfide; unit inferred
FYI, pKd means -log10 of a concentration in mol per litre.

Example entries and their recorded answers appear below.
{"columns": ["BIOSEQUENCE", "MEASURE", "MEASURED NUMBER"],
 "data": [
  ["AACTACATGGTATGTGGTGAACTCACGCGCATAACCCTTTTTTCACCTGCCCTTTTAACTAATGACGTACAATGTACCC [LDL-A274]", "pKd", 9.32],
  ["AACTACATGGTATGTGGTGAACTACCTCGATTTTATATTATTTCGCTTACCAACAACTGCAGAGACGTACAATGTACCC [LDL-A1]", "pKd", 10.49]
]}

Query: // query pKd value for entry AACTACATGGTATGTGGTGAACTGTCAGCTTCTTCTATATAATTCACCTTGCCTCTCGTTCCTGACGTACAATGTACCC [LDL-A2]
Response: 10.80

====

Tested on: HDL particle (high-density lipoprotein)
Test: SPR
Details: 5' disulfide; 100 nM HDL, selection buffer
Reported Kd values are given for each entry in this list.
Respond with the bare value in nM.

Query: // query Kd value for entry AACTACATGGTATGTGGTGAACTGTCAGCTTCTTCTATATAATTCACCTTGCCTCTCGTTCCTGACGTACAATGTACCC [LDL-A2]
Response: 9.69

Query: // query Kd value for entry AACTACATGGTATGTGGTGAACTAACCTTAATTTACCCTTGTTTTATCATTTCCATCATAGCTGACGTACAATGTACCC [LDL-A12]
Response: 7.25

Query: // query Kd value for entry AACTACATGGTATGTGGTGAACTAAACCATTCTTGTCTCGCATTTTTCTCTTTTATATTATTTGACGTACAATGTACCC [LDL-A38]
Response: 11.5

Query: // query Kd value for entry AACTACATGGTATGTGGTGAACTACCTCGATTTTATATTATTTCGCTTACCAACAACTGCAGAGACGTACAATGTACCC [LDL-A1]
Response: 9.01

Query: // query Kd value for entry AACTACATGGTATGTGGTGAACTCACGCGCATAACCCTTTTTTCACCTGCCCTTTTAACTAATGACGTACAATGTACCC [LDL-A274]
Response: 8.26
